# experimental-target: Adenosine receptor A1 (Homo sapiens, UniProt P30542)
# Sequence (P30542 whole entry): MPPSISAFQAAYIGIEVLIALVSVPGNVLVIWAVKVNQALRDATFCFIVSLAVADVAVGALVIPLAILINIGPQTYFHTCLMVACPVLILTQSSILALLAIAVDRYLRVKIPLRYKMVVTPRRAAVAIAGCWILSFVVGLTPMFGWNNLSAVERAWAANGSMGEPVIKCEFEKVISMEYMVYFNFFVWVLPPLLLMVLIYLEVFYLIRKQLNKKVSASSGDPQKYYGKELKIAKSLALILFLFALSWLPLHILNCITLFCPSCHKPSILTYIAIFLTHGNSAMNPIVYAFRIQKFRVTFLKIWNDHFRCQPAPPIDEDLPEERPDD
# protocol: Displacement of [3H]DPCPX from human A1 adenosine receptor expressed in Flp-In-CHO cells by radioligand competitive binding assay
# Format: cell-based
pKi: −log10 of the molar value.
recorded-endpoint: pKi

compound-smiles	readout-number
CCCn1c(=O)c2[nH]c(C34CCC(CCC(=O)NCCNC(=O)COCCNC(=O)OC(C)(C)C)(CC3)CC4)nc2n(CCC)c1=O	7.83

I = CCCn1c(=O)c2[nH]c(C34CC5CC(CC(C5)C3)C4)nc2n(CCCNC(=O)c2ccc(C(=O)NCCNC(=O)CCNC(=O)CCCCCNC(=O)COc3ccc(/C=C/C4=[N+]5C(=Cc6ccc(-c7cccs7)n6[B-]5(F)F)C=C4)cc3)cc2)c1=O
II = CCCn1c(=O)c2[nH]c(C34CCC(C(=O)NCCNC(=O)CCNC(=O)CCNC(=O)OC(C)(C)C)(CC3)CC4)nc2n(CCC)c1=O
Problem: Given the entries I and II , determine which has the lower reported pKi. Response format: the label of the selected entry.
I
(I: 8.01, II: 8.36)

====

# experimental-target: Adenosine receptor A1 (Homo sapiens, UniProt P30542)
# protocol: biochemical
# Description: Displacement of [3H]DPCPX from human A1 adenosine receptor expressed in CHO-K1 cells by radioligand binding assay
recorded-endpoint: pKi
Remember, pKi is on a log scale: it is -log10 of the molar concentration.

// pKi lookup, compound = O[C@H]1CC[C@H](Nc2nc(-c3ccccc3)nc3[nH]ccc23)CC1 , result: 9.00

====

# experimental-target: Adenosine receptor A3 (Homo sapiens)
# protocol: Binding affinity to NLuc human A3 adenosine receptor expressed in HEK293-A cells in presence of 1 uM MRS1220 by NanoBRET binding assay
# Assay type: cell-based
recorded-endpoint: Kd (nM)

P = CCCn1c(=O)c2[nH]c(C34CCC(C(=O)NCCNC(=O)CCNC(=O)CCNC(=O)CCCCCNC(=O)COc5ccc(/C=C/C6=[N+]7C(=Cc8ccc(-c9cccs9)n8[B-]7(F)F)C=C6)cc5)(CC3)CC4)nc2n(CCC)c1=O
Q = CCCn1c(=O)c2[nH]c(C34CC5CC(CC(C5)C3)C4)nc2n(CCCNC(=O)c2ccc(C(=O)NCCNC(=O)CCNC(=O)CCCCCNC(=O)COc3ccc(/C=C/C4=[N+]5C(=Cc6ccc(-c7cccs7)n6[B-]5(F)F)C=C4)cc3)cc2)c1=O
Of the pair P and Q , name the member with the lesser recorded Kd. Use the label to indicate which entry you chose.
Q
(Q: 58.9 nM, P: 135 nM)

====

// reported EC50 for each item listed
# experimental-target: Adenosine receptor A3 (Homo sapiens)
# protocol: Agonist activity at A3 adenosine receptor (unknown origin)
# Format: functional
API: value field is a number in µM; no unit string.

compound-smiles	experimental-target	unit-info	readout-number
CCNC(=O)[C@H]1O[C@@H](n2cnc3c(NCCCCNC(=O)CNC(=O)[C@@H](C)NC(=O)[C@@H](C)NC(=O)CCCCCNC(=O)COc4ccc(/C=C/C5=[N+]6C(=Cc7ccc(-c8cccs8)n7[B-]6(F)F)C=C5)cc4)ncnc32)[C@H](O)[C@@H]1O	Adenosine receptor A3 (Homo sapiens)	µM	0.00331

The record that follows has no EC50 shown yet.
The value of EC50 recorded for O=C(CCCCCNC(=O)COc1ccc(/C=C/C2=[N+]3C(=Cc4ccc(-c5cccs5)n4[B-]3(F)F)C=C2)cc1)NCCCCNc1ncnc2c1ncn2[C@@H]1O[C@H](CO)[C@@H](O)[C@H]1O when tested on Adenosine receptor A3 (Homo sapiens) reads 0.0501

====

# experimental-target: Adenosine receptor A3 (Homo sapiens)
# Sequence (P0DMS8 whole entry): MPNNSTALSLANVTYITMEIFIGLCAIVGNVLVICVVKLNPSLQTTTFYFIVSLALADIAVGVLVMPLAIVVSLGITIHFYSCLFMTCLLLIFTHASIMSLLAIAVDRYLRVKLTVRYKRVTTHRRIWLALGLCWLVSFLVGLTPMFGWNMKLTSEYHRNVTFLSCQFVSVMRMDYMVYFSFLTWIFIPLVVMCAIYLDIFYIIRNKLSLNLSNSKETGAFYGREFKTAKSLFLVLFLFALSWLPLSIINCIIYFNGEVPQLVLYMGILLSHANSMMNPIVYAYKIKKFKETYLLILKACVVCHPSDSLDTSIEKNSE
# protocol: Antagonist activity at N-terminal NLuc tagged human A3 adenosine receptor
# Format: functional
recorded-endpoint: Kd (nM)
Quick note: give the figure in nM, leave out the unit.

Field Kd (entry CCCn1c(=O)c2[nH]c(-c3ccc(OCC(=O)NCCNC(=O)CCCCNC(=O)COc4ccc(/C=C/C5=[N+]6C(=Cc7ccc(-c8cccs8)n7[B-]6(F)F)C=C5)cc4)cc3)nc2n(CCC)c1=O ) reads 30.9

====

# experimental-target: Adenosine receptor A3 (Homo sapiens, UniProt P0DMS8)
# Sequence (P0DMS8 whole entry): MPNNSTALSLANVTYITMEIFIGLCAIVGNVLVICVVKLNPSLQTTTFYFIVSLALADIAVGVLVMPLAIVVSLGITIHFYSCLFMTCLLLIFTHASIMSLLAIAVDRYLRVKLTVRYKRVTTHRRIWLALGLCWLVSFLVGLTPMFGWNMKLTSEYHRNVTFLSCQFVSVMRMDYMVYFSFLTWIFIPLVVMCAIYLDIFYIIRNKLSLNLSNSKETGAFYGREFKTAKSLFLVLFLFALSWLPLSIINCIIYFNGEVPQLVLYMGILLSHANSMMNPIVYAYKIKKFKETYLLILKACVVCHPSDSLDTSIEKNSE
# protocol: Agonist activity at human A3 adenosine receptor expressed in Flp-In-CHO cells assessed as calcium influx by competitive binding assay
# Type: functional, cell-based
recorded-endpoint: pEC50
Please note pEC50 is a logarithmic value: minus log10 of concentration in mol/L. Answer with that number alone.

Quick note, pEC50 for O=C(CCCCCNC(=O)COc1ccc(/C=C/C2=[N+]3C(=Cc4ccc(-c5cccs5)n4[B-]3(F)F)C=C2)cc1)NCCCCNc1ncnc2c1ncn2[C@@H]1O[C@H](CO)[C@@H](O)[C@H]1O landed at 5.90

====

# experimental-target: Adenosine receptor A1 (Homo sapiens, UniProt P30542)
# protocol: Binding affinity to NLuc human A1 adenosine receptor expressed in HEK293-A cells in presence of 1 uM SLV320 by NanoBRET binding assay
# Assay type: cell-based
pKd: −log10 of the molar value.
recorded-endpoint: pKd

A = CCCn1c(=O)c2[nH]c(C34CCC(C(=O)NCCNC(=O)CCNC(=O)CCNC(=O)CCCCC[N+]5=C(/C=C/C=C/C=C6/N(C)c7ccc(S(=O)(=O)O)cc7C6(C)C)C(C)(C)c6cc(S(=O)(=O)[O-])ccc65)(CC3)CC4)nc2n(CCC)c1=O
B = CCCn1c(=O)c2[nH]c(C34CC5CC(CC(C5)C3)C4)nc2n(CCCNC(=O)c2ccc(C(=O)NCCNC(=O)CCNC(=O)CCCCCNC(=O)COc3ccc(/C=C/C4=[N+]5C(=Cc6ccc(-c7cccs7)n6[B-]5(F)F)C=C4)cc3)cc2)c1=O
C = CCCn1c(=O)c2[nH]c(C34CCC(C(=O)NCCNC(=O)CCNC(=O)CCNC(=O)CCCCCNC(=O)COc5ccc(/C=C/C6=[N+]7C(=Cc8ccc(-c9cccs9)n8[B-]7(F)F)C=C6)cc5)(CC3)CC4)nc2n(CCC)c1=O
Order by pKd, smallest first, the items presented above. List each label, following the requested order.
A, B, C

====

# experimental-target: Adenosine receptor A1 (Homo sapiens, UniProt P30542)
# protocol: Displacement of [3H]DPCPX from human A1 adenosine receptor expressed in Flp-In-CHO cells by radioligand competitive binding assay
# Format: cell-based
pKi: −log10 of the molar value.
recorded-endpoint: pKi

Here's what some known entries look like.
compound-smiles	pKi
CCCn1c(=O)c2[nH]c(C34CCC(C(=O)NCCCNC(=O)CCNC(=O)CCNC(=O)OC(C)(C)C)(CC3)CC4)nc2n(CCC)c1=O	7.89
CCCn1c(=O)c2[nH]c(C34CCC(CCC(=O)NCCNC(=O)COCCOCCNC(=O)OC(C)(C)C)(CC3)CC4)nc2n(CCC)c1=O	7.88

I = CCCn1c(=O)c2[nH]c(C34CCC(C(=O)NCCNC(=O)CCCCC[N+]5=C(/C=C/C=C/C=C6/N(C)c7ccc(S(=O)(=O)O)cc7C6(C)C)C(C)(C)c6cc(S(=O)(=O)[O-])ccc65)(CC3)CC4)nc2n(CCC)c1=O
II = CCCn1c(=O)c2[nH]c(C34CCC(C(=O)NCCCNC(=O)COCCNC(=O)OC(C)(C)C)(CC3)CC4)nc2n(CCC)c1=O
III = CCCn1c(=O)c2[nH]c(C34CCC(C(=O)NCCNC(=O)CCNC(=O)CCNC(=O)CCCCC[N+]5=C(/C=C/C=C/C=C6/N(C)c7ccc(S(=O)(=O)O)cc7C6(C)C)C(C)(C)c6cc(S(=O)(=O)[O-])ccc65)(CC3)CC4)nc2n(CCC)c1=O
List by increasing pKi. Write out the labels following the order that was asked for.
I, III, II
(I: 6.07, III: 6.70, II: 7.79)

Hey, just so you know, these numbers are from ChEMBL document CHEMBL5042471.
